- experimental.details: Cytotoxicity against human Hep2 cells
- Assay type: functional
- condition.notes: HEp-2, read-out: ED50 (the source's name)
Entries annotated with measured EC50

>  <compound>
C[C@@H]1C[C@@H]2OC(=O)[C@]3(C)[C@@H]2[C@@H](OC3(C)O)[C@]2(C)C(=O)CC(SC[C@H](N)C(=O)O)[C@@H]12 (stereo not given in full)

>  <EC50>
13.7 µg/mL

$$$$
>  <compound>
C[C@@H]1C[C@H]2OC(=O)[C@@H](C)[C@H]2[C@H](O)[C@]2(C)C(=O)C=C[C@@H]12

>  <EC50>
0.814 µg/mL

$$$$
>  <compound>
C=C1C(=O)O[C@@H]2C[C@@H](C)[C@@H]3C=CC(=O)[C@@]3(C)[C@@H](O)[C@H]12 [HELENALIN]

>  <EC50>
0.1 µg/mL

$$$$
>  <compound>
C[C@@H]1C[C@@H]2OC(=O)[C@]3(C)[C@H]2[C@@H](OC3(C)O)[C@]2(C)C(=O)C=C[C@@H]12 (stereo not given in full) [TENULIN]

>  <EC50>
4.5 µg/mL

$$$$
>  <compound>
O=C1C=CCC1

>  <EC50>
50 µg/mL

$$$$

* * *

Entries annotated with measured T/C
- Test system: W256
- experimental.details: Antitumor activity against rat Walker 256 cells allografted in Sprague-Dawley rat at 2.5 mg/kg/day, ip relative to control
- Assay type: functional
- condition.notes: route intraperitoneal

>  <compound>
O=C1C=CCC1

>  <tgt>
W256

>  <T/C (%)>
188

$$$$
>  <compound>
C[C@@H]1C[C@H]2OC(=O)[C@@H](C)[C@H]2[C@H](O)[C@]2(C)C(=O)C=C[C@@H]12

>  <tgt>
W256

>  <T/C (%)>
207

$$$$
>  <compound>
C[C@@H]1C[C@@H]2OC(=O)[C@]3(C)[C@H]2[C@@H](OC3(C)O)[C@]2(C)C(=O)C=C[C@@H]12 (some centres undefined) [TENULIN]

>  <tgt>
W256

>  <T/C (%)>
266

$$$$
>  <compound>
C=C1C(=O)O[C@@H]2C[C@@H](C)[C@@H]3C=CC(=O)[C@@]3(C)[C@@H](O)[C@H]12 [HELENALIN]

>  <tgt>
W256

>  <T/C (%)>
316

$$$$
